Values compiled from patent US20030064915A1.

Each record here notes measured IC50.
Biological target: HLA-DR2 molecules (Homo sapiens, UniProt P01903+P01911)
Construct: Soluble HLA-DR2 molecules were expressed in Drosophila S2 cells and purified as described; made in house; host or cells: Drosophila S2 cells
Assay: Competitive binding assay: inhibition of biotinylated MBP 85-99 binding to HLA-DR2 molecules
Settings: read-out: IC50 (μM) vs. biotinylated: MBP 95-99
Procedure: Soluble HLA-DR2 molecules were expressed in Drosophila S2 cells and purified as described (Kalandadze A. et al., J. Biol. Chem. 271:20156 (1996)). […] Detection of class II MHC protein/peptide complexes was performed by measuring bound peptide-biotin, which was detected using streptavidin-conjugated alkaline phosphatase, as follows. […] The absorbance at 410 nm was monitored by a microplate reader (model MR4000; Dynatech, Chantilly, Va.).

C[C@H](N)C(=O)N[C@@H](C)C(=O)N[C@@H](CCC(=O)O)C(=O)N[C@@H](CCCCN)C(=O)N[C@@H](C)C(=O)N[C@@H](C)C(=O)N[C@@H](C)C(=O)N[C@@H](C)C(=O)N[C@@H](C)C(=O)N[C@@H](C)C(=O)N[C@@H](C)C(=O)N[C@@H](C)C(=O)N[C@@H](C)C(=O)N[C@@H](C)C(=O)O	> 1000 µM
C[C@H](N)C(=O)N[C@@H](CCCCN)C(=O)N[C@@H](CCC(=O)O)C(=O)N[C@@H](CCC(=O)O)C(=O)N[C@@H](Cc1ccc(O)cc1)C(=O)N[C@@H](C)C(=O)N[C@@H](C)C(=O)N[C@@H](C)C(=O)N[C@@H](C)C(=O)N[C@@H](C)C(=O)N[C@@H](C)C(=O)N[C@@H](C)C(=O)N[C@@H](C)C(=O)N[C@@H](C)C(=O)N[C@@H](C)C(=O)O	> 1000 µM

# input molecule: C[C@H](N)C(=O)N[C@@H](CCC(=O)O)C(=O)N[C@@H](CCCCN)C(=O)N[C@@H](C)C(=O)N[C@@H](Cc1ccc(O)cc1)C(=O)N[C@@H](C)C(=O)N[C@@H](C)C(=O)N[C@@H](C)C(=O)N[C@@H](C)C(=O)N[C@@H](C)C(=O)N[C@@H](C)C(=O)N[C@@H](C)C(=O)N[C@@H](C)C(=O)N[C@@H](C)C(=O)N[C@@H](C)C(=O)O ; wanted: its IC50
> 1000 µM
